System: NCI-H1975
Assay procedure: relative viability (nuclei count vs DMSO), 5 days (fraction); higher = more cells survive
Test settings: first compound 8 µM
Reported relative viability is given for each of the following molecules.

[
  {
    "Molecule": "C=C1C(=O)O[C@@H](CCCCCCCC)[C@@H]1C(=O)O [C-75] + O=C(c1cc(Cc2n[nH]c(=O)c3ccccc23)ccc1F)N1CCN(C(=O)C2CC2)CC1 [Olaparib] (partner 8 µM)",
    "relative viability": 0.741
  },
  {
    "Molecule": "C=C1C(=O)O[C@@H](CCCCCCCC)[C@@H]1C(=O)O [C-75] + CC(=O)Nc1cccc(-n2c(=O)n(C3CC3)c(=O)c3c(Nc4ccc(I)cc4F)n(C)c(=O)c(C)c32)c1 [Trametinib] (partner 0.02 µM)",
    "relative viability": 0.41
  },
  {
    "Molecule": "C=C1C(=O)O[C@@H](CCCCCCCC)[C@@H]1C(=O)O [C-75] + N=C(N)NC(=N)NCCc1ccccc1 [Phenformin] (partner 250 µM)",
    "relative viability": 0.412
  },
  {
    "Molecule": "C=C1C(=O)O[C@@H](CCCCCCCC)[C@@H]1C(=O)O [C-75] + COc1cccc2cc(-c3nc([C@H]4CC[C@H](C(=O)O)CC4)n4ncnc(N)c34)[nH]c12 [OSI-027] (partner 0.5 µM)",
    "relative viability": 0.717
  },
  {
    "Molecule": "C=C1C(=O)O[C@@H](CCCCCCCC)[C@@H]1C(=O)O [C-75] + CS(=O)(=O)N1CCN(Cc2cc3nc(-c4cccc5[nH]ncc45)nc(N4CCOCC4)c3s2)CC1 [Pictilisib] (partner 1 µM)",
    "relative viability": 0.347
  },
  {
    "Molecule": "C=C1C(=O)O[C@@H](CCCCCCCC)[C@@H]1C(=O)O [C-75] + COc1cc2c(Oc3ccc(NC(=O)C4(C(=O)Nc5ccc(F)cc5)CC4)cc3F)ccnc2cc1OCCCN1CCOCC1 [Foretinib] (partner 0.25 µM)",
    "relative viability": 0.878
  },
  {
    "Molecule": "C=C1C(=O)O[C@@H](CCCCCCCC)[C@@H]1C(=O)O [C-75] + O=C(CCCCCCC(=O)Nc1ccccc1)NO [Vorinostat] (partner 1 µM)",
    "relative viability": 0.742
  },
  {
    "Molecule": "C=C1C(=O)O[C@@H](CCCCCCCC)[C@@H]1C(=O)O [C-75] + C[C@]1(O)C[C@@H](c2nc(-c3ccc4ccc(-c5ccccc5)nc4c3)c3c(N)nccn32)C1 [Linsitinib] (partner 1 µM)",
    "relative viability": 0.898
  },
  {
    "Molecule": "C=C1C(=O)O[C@@H](CCCCCCCC)[C@@H]1C(=O)O [C-75] + C[C@@H](Oc1cc(-c2cnn(C3CCNCC3)c2)cnc1N)c1c(Cl)ccc(F)c1Cl [Crizotinib] (partner 1 µM)",
    "relative viability": 0.935
  },
  {
    "Molecule": "C=C1C(=O)O[C@@H](CCCCCCCC)[C@@H]1C(=O)O [C-75] + CC(C)C[C@H](NC(=O)[C@H](Cc1ccccc1)NC(=O)c1cnccn1)B(O)O [Bortezomib] (partner 0.002 µM)",
    "relative viability": 0.361
  }
]

---

Test system: CAL-12T
Assay procedure: relative viability (nuclei count vs DMSO), 5 days (fraction); higher = more cells survive
Test settings: first compound 0.1 µM
Recorded endpoint: relative viability

[
  {
    "Compound": "NC(=O)Nc1cc(-c2cccc(F)c2)sc1C(=O)N[C@H]1CCCNC1 [AZD7762] + CC(=O)Nc1cccc(-n2c(=O)n(C3CC3)c(=O)c3c(Nc4ccc(I)cc4F)n(C)c(=O)c(C)c32)c1 [Trametinib] (partner 0.02 µM)",
    "Observed result": 0.377
  },
  {
    "Compound": "NC(=O)Nc1cc(-c2cccc(F)c2)sc1C(=O)N[C@H]1CCCNC1 [AZD7762] + N=C(N)NC(=N)NCCc1ccccc1 [Phenformin] (partner 250 µM)",
    "Observed result": 0.571
  },
  {
    "Compound": "NC(=O)Nc1cc(-c2cccc(F)c2)sc1C(=O)N[C@H]1CCCNC1 [AZD7762] + Cc1nc(Nc2ncc(C(=O)Nc3c(C)cccc3Cl)s2)cc(N2CCN(CCO)CC2)n1 [Dasatinib] (partner 0.075 µM)",
    "Observed result": 0.47
  },
  {
    "Compound": "NC(=O)Nc1cc(-c2cccc(F)c2)sc1C(=O)N[C@H]1CCCNC1 [AZD7762] + CS(=O)(=O)N1CCN(Cc2cc3nc(-c4cccc5[nH]ncc45)nc(N4CCOCC4)c3s2)CC1 [Pictilisib] (partner 1 µM)",
    "Observed result": 0.385
  }
]

---

Test system: NCI-H441
Assay procedure: relative viability (nuclei count vs DMSO), 5 days (fraction); higher = more cells survive
Test settings: first compound 0.1 µM
Reported relative viability is given for each of the following molecules.

[
  {
    "Molecule": "NC(=O)Nc1cc(-c2cccc(F)c2)sc1C(=O)N[C@H]1CCCNC1 [AZD7762] + COc1cc2c(Oc3ccc(NC(=O)C4(C(=O)Nc5ccc(F)cc5)CC4)cc3F)ccnc2cc1OCCCN1CCOCC1 [Foretinib] (partner 0.25 µM)",
    "relative viability": 1.11
  },
  {
    "Molecule": "NC(=O)Nc1cc(-c2cccc(F)c2)sc1C(=O)N[C@H]1CCCNC1 [AZD7762] + CC(=O)Nc1cccc(-n2c(=O)n(C3CC3)c(=O)c3c(Nc4ccc(I)cc4F)n(C)c(=O)c(C)c32)c1 [Trametinib] (partner 0.02 µM)",
    "relative viability": 0.543
  }
]

---

Reported relative viability is given for each of the following compounds.
Tested on: NCI-H2170
Assay procedure: relative viability (nuclei count vs DMSO), 5 days (fraction); higher = more cells survive
Test settings: first compound 0.05 µM

[
  {
    "Compound": "CC1(C)CCC(c2ccc(Cl)cc2)=C(CN2CCN(c3ccc(C(=O)NS(=O)(=O)c4ccc(N[C@H](CCN5CCOCC5)CSc5ccccc5)c(S(=O)(=O)C(F)(F)F)c4)cc3)CC2)C1 [Navitoclax] + O=C(CCCCCCC(=O)Nc1ccccc1)NO [Vorinostat] (partner 1 µM)",
    "relative viability": 0.736
  },
  {
    "Compound": "CC1(C)CCC(c2ccc(Cl)cc2)=C(CN2CCN(c3ccc(C(=O)NS(=O)(=O)c4ccc(N[C@H](CCN5CCOCC5)CSc5ccccc5)c(S(=O)(=O)C(F)(F)F)c4)cc3)CC2)C1 [Navitoclax] + CCNC(=O)c1noc(-c2cc(C(C)C)c(O)cc2O)c1-c1ccc(CN2CCOCC2)cc1 [Luminespib] (partner 0.01 µM)",
    "relative viability": 0.552
  },
  {
    "Compound": "CC1(C)CCC(c2ccc(Cl)cc2)=C(CN2CCN(c3ccc(C(=O)NS(=O)(=O)c4ccc(N[C@H](CCN5CCOCC5)CSc5ccccc5)c(S(=O)(=O)C(F)(F)F)c4)cc3)CC2)C1 [Navitoclax] + Cc1nc(Nc2ncc(C(=O)Nc3c(C)cccc3Cl)s2)cc(N2CCN(CCO)CC2)n1 [Dasatinib] (partner 0.075 µM)",
    "relative viability": 0.397
  },
  {
    "Compound": "CC1(C)CCC(c2ccc(Cl)cc2)=C(CN2CCN(c3ccc(C(=O)NS(=O)(=O)c4ccc(N[C@H](CCN5CCOCC5)CSc5ccccc5)c(S(=O)(=O)C(F)(F)F)c4)cc3)CC2)C1 [Navitoclax] + C[C@@H](Oc1cc(-c2cnn(C3CCNCC3)c2)cnc1N)c1c(Cl)ccc(F)c1Cl [Crizotinib] (partner 1 µM)",
    "relative viability": 1.21
  },
  {
    "Compound": "CC1(C)CCC(c2ccc(Cl)cc2)=C(CN2CCN(c3ccc(C(=O)NS(=O)(=O)c4ccc(N[C@H](CCN5CCOCC5)CSc5ccccc5)c(S(=O)(=O)C(F)(F)F)c4)cc3)CC2)C1 [Navitoclax] + N=C(N)NC(=N)NCCc1ccccc1 [Phenformin] (partner 250 µM)",
    "relative viability": 0.391
  },
  {
    "Compound": "CC1(C)CCC(c2ccc(Cl)cc2)=C(CN2CCN(c3ccc(C(=O)NS(=O)(=O)c4ccc(N[C@H](CCN5CCOCC5)CSc5ccccc5)c(S(=O)(=O)C(F)(F)F)c4)cc3)CC2)C1 [Navitoclax] + NC(=O)Nc1cc(-c2cccc(F)c2)sc1C(=O)N[C@H]1CCCNC1 [AZD7762] (partner 0.2 µM)",
    "relative viability": 0.845
  },
  {
    "Compound": "CC1(C)CCC(c2ccc(Cl)cc2)=C(CN2CCN(c3ccc(C(=O)NS(=O)(=O)c4ccc(N[C@H](CCN5CCOCC5)CSc5ccccc5)c(S(=O)(=O)C(F)(F)F)c4)cc3)CC2)C1 [Navitoclax] + CS(=O)(=O)N1CCN(Cc2cc3nc(-c4cccc5[nH]ncc45)nc(N4CCOCC4)c3s2)CC1 [Pictilisib] (partner 1 µM)",
    "relative viability": 0.334
  },
  {
    "Compound": "CC1(C)CCC(c2ccc(Cl)cc2)=C(CN2CCN(c3ccc(C(=O)NS(=O)(=O)c4ccc(N[C@H](CCN5CCOCC5)CSc5ccccc5)c(S(=O)(=O)C(F)(F)F)c4)cc3)CC2)C1 [Navitoclax] + Nc1ncn([C@H]2C[C@H](O)[C@@H](CO)O2)c(=O)n1 [Decitabine] (partner 2 µM)",
    "relative viability": 0.475
  }
]
